System: CD2F1 mice, L1210 leukemia ip, survival T/C
protocol-description: NCI In Vivo Anticancer Drug Screen. Data for tumor model L1210 Leukemia (intraperitoneal) in CD2F1 (CDF1) mice
condition-details: endpoint: mean survival time; dose: 75.0 mg/kg/injection; schedule: Q01DX001 (ip); vehicle: other; higher = longer survival
Inconclusive results and toxic doses are left out.
Exercise: state measured T/C for each of the molecules provided.

Known T/C results, listed for orientation:
Req: Entry O=[N+]([O-])c1ccc(S(=O)Cc2ccccc2)c([N+](=O)[O-])c1 (centres undefined) has what T/C?
Resp: 100 % of control

Req: Follow-up entry: CN(C)CCC(O)C(O)CCN(C)C (centres undefined)
Resp: 102 % of control

Req: Follow-up entry: `CCN1CCCSC1=S`
Resp: 98 % of control

# ---- query molecule ----
Req: Please give the measured T/C for this molecule: `CC(C)(CO)N=Cc1ccccc1F`
Resp: 97 % of control

---

Test system: CD2F1 mice, L1210 leukemia ip, survival T/C
protocol-description: NCI In Vivo Anticancer Drug Screen. Data for tumor model L1210 Leukemia (intraperitoneal) in CD2F1 (CDF1) mice
condition-details: endpoint: mean survival time; dose: 100.0 mg/kg/injection; schedule: Q01DX009 (ip); vehicle: saline with Tween-80; higher = longer survival
Toxic doses and inconclusive results are not listed.
measurement-kind: T/C

Example cases with answers are listed next.
Req: Hi! What's the reported T/C for O=C(OC1COC(OC(=O)c2ccccc2)C(OC(=O)c2ccccc2)C1OC(=O)c1ccccc1)c1ccccc1 (configuration not stated) on CD2F1 mice, L1210 leukemia ip, survival T/C?
Resp: 97 % of control

Req: One more molecule: `Cc1ccccc1N=Cc1ccc(N(C)C)cc1`
Resp: 96 % of control

Req: Follow-up item: CCCC(O)(CC)C1CCCC1C (configuration not stated)
Resp: 95 % of control

Req: Request: O=C(CC(c1ccc(Cl)cc1)P(=O)(c1ccccc1)c1ccccc1)c1ccccc1 (configuration not stated)
Resp: 90 % of control

Req: And for `O=C1CCn2c3ccccc3c3cccc1c32` ?
Resp: 101 % of control

I'm hoping you can list T/C for every molecule here, please.
1. CC(=O)Nc1ccc(/C=N/NC(=O)CNC(=O)Nc2cccc(C(F)(F)F)c2)cc1
2. CC(C)/C(=N\Nc1ccc([N+](=O)[O-])cc1[N+](=O)[O-])c1ccccc1

Resp:
1. 88 % of control
2. 97 % of control

Please report T/C for every entry that follows.
1. Nc1ccc(Nc2ccccc2C(=O)O)cc1
2. Nc1nc(N)c(N)c(N)n1
3. O=c1cnn(C2OC(CO)C(O)C2O)c(=S)[nH]1 (configuration not stated)
4. Cc1[nH]c2ccccc2c1C(C)(Cc1cc2ccccc2[nH]1)c1ccncc1 (configuration not stated)

Resp:
["103 % of control", "90 % of control", "123 % of control", "91 % of control"]

Req: Report T/C for O=C1NC(=O)C2CC=CCC12 (configuration not stated) tested on CD2F1 mice, L1210 leukemia ip, survival T/C.
Resp: 96 % of control

---

Test system: CD2F1 mice, L1210 leukemia ip, survival T/C
protocol-description: NCI In Vivo Anticancer Drug Screen. Data for tumor model L1210 Leukemia (intraperitoneal) in CD2F1 (CDF1) mice
condition-details: endpoint: mean survival time; dose: 100.0 mg/kg/injection; schedule: Q01DX009 (ip); vehicle: other; higher = longer survival
Toxic doses and inconclusive results are not listed.
measurement-kind: T/C

Req: Field request: T/C | item: `C=C(N=[N+]=[N-])c1ccccc1`
Resp: 102 % of control

Provide each entry's T/C from the list below.
1. CN(Cc1ccc(Cl)cc1)N=Nc1ccc(C(=O)O)cc1
2. Cc1ccc(C2OC23CC(C)(C)c2ccccc2C3=O)cc1 (stereo not given)
3. c1ccc(-c2ccc(C3=NN(c4ccccc4)C(c4ccccc4)C3NC3CCCCC3)cc2)cc1 (stereo not given)
4. O=C(NNC(=O)C(F)(F)F)c1ccccc1

Resp:
["101 % of control", "100 % of control", "106 % of control", "118 % of control"]
